System: NCI-H522
Test: NCI tumour cell line growth inhibition, 48 h
Calls of active or inactive are those of the source. Rule as the data show it: active = GI50 up to about 1.1 µM and inactive = higher.
Item-by-item account of GI50

| compound | GI50 |
| --- | --- |
| [N-]=[N+]=Nc1c(-c2ccccc2)c(=O)n(-c2ccccc2)c2ccccc12 | 27.7 µM (inactive) |
| C=C(C)[C@H]1CC[C@@]2(C)C(C1)[C@H](C)CC[C@@H]2O (stereo partly drawn) | 47 µM (inactive) |
| CC(C)/C(Cl)=N/OC(=O)Nc1ccc(Br)cc1 | 1.52 µM (inactive) |
| Cc1c(C(=O)/C=C/c2ccc(N(C)C)cc2)c(=O)n(-c2ccccc2)n1C | > 100 µM (inactive) |
| COC(=O)c1c2c(cc3c1CC1(Cc4cc5c(cc4C1)CCCC5)C3)CCCC2 | > 100 µM (inactive) |

// GI50 lookup, compound = c1ccc(C2=NN3CN(N2)c2ccccc2OCCCOc2ccccc23)cc1 , result: 34.7 µM (inactive)

// GI50 lookup, compound = CCN(CC)CCCNc1nncc2cc3c([nH]c4ccc(OC)cc43)c(C)c12 , result: 2.7 µM (inactive)

// GI50 lookup, compound = CSc1nc(SC)c2c(CO)c(Br)n(Cc3ccccc3)c2n1 , result: 14.2 µM (inactive)

---

Test system: NCI-H23
Test: NCI tumour cell line growth inhibition, 48 h
Calls of active or inactive are those of the source. No stated cut-off is given here; in the data, active = GI50 up to about 1.1 µM and inactive = higher.
// allowed return values: active, inactive

| compound | class assignment |
| --- | --- |
| CC(=O)OCCN1c2ccccc2Sc2cnccc21 | inactive |
| CCN(CC)CCCC(C)Nc1ccnc(/C=C/c2ccc(Cl)cc2)c1 (stereo not given) | inactive |
| COc1ccc(Cn2c(=O)c(OC)c(C)c3cc4ccccc4cc32)cc1 | inactive |

Exercise: How did this test come out for N#Cc1c(N)n(-c2nc3ccccc3s2)c(=O)c2cc([N+](=O)[O-])ccc12 ?
Key: inactive

Exercise: How did this test come out for N=C(N)C1CN(CC=O)C(=O)NC1=O (stereo not given) ?
Key: inactive

Exercise: How did this test come out for C[Si](C)(C)C#C[I+]c1ccccc1 ?
Key: inactive

---

Test system: LXFL 529
Experiment: NCI tumour cell line growth inhibition, 48 h
Activity calls are given as the source filed them. No stated cut-off is given here; in the data, active = GI50 up to about 1.1 µM and inactive = higher.
attribute measured: GI50

| structure smiles string | system tested | GI50 |
| --- | --- | --- |
| COc1ccc(/C=C/C(=O)c2c(-c3ccccc3)nn(C)c(=O)c2N2CCOCC2)cc1 | LXFL 529 | > 100 µM (inactive) |
| CCc1ccccc1NC(=O)C1=C(C)NC(C)=C(C(=O)Nc2ccccc2CC)C1c1ccc(NC(C)=O)cc1 | LXFL 529 | 33 µM (inactive) |
| CCN(CC)CCCn1cnc2ncccc2c1=O | LXFL 529 | > 100 µM (inactive) |

Param item: COC1(OC)C2(Cl)C3=CCCC=C3C1(Cl)C(Cl)=C2Cl ; param system: LXFL 529; output GI50: 25.6 µM (inactive)

Param item: C=CC(=O)N1C/C(=C\c2ccccc2)C(=O)/C(=C/c2ccccc2)C1 ; param system: LXFL 529; output GI50: 1.33 µM (inactive)

---

Item-by-item account of GI50
Test system: MDA-MB-435
Experiment: NCI tumour cell line growth inhibition, 48 h
Active and inactive are the calls of the source. Cut-off read from the data, not from the text of the source: active = GI50 up to about 1.1 µM and inactive = higher.

Below, each entry is followed by its recorded GI50 result.
| compound | system tested | GI50 |
| --- | --- | --- |
| O=c1c2ncn(C3CCCCO3)c2n(-c2ccccc2)c(=S)n1-c1ccccc1 (centres undefined) | MDA-MB-435 | > 67.6 µM (inactive) |
| CCOC(=O)c1cc(C2=CCNC2=O)c(-c2cc(C)no2)[nH]1 | MDA-MB-435 | > 100 µM (inactive) |
| C[N+]1(CCC[N+]2(C)CC3C4C=CC(CC4)C3C2)CCOCC1 (centres undefined) | MDA-MB-435 | > 100 µM (inactive) |
| CCOP(=O)(OCC)C(Nc1cccc(F)c1)c1ccc(N(C)C)cc1 (centres undefined) | MDA-MB-435 | > 100 µM (inactive) |
| O=C(CC(C(=O)c1cccs1)c1ccsc1)c1ccsc1 (centres undefined) | MDA-MB-435 | 20.3 µM (inactive) |

// GI50 lookup, compound = CCOC(=O)NC(C(F)(F)F)(C(F)(F)F)P(=O)(OCC)OCC , result: 44.1 µM (inactive)

// GI50 lookup, compound = CCC1=[N+]([O-])C(C)(C)NC1(C)C , result: > 10 µM (inactive)

// GI50 lookup, compound = Cn1c(O)c(C(=O)Nc2ccc([N+](=O)[O-])cc2)c(=O)n(C)c1=S , result: 1.51 µM (inactive)

// GI50 lookup, compound = CCCCCCCCCCCCCC(=O)NO , result: 25.3 µM (inactive)

// GI50 lookup, compound = OC[C@]1(n2nc3ccccc3n2)OC[C@@H]1c1ccccc1 , result: 32.2 µM (inactive)

// GI50 lookup, compound = C=CCc1ccccc1CC1(OCC)OC(=O)c2ccccc21 (centres undefined) , result: 28.8 µM (inactive)

// GI50 lookup, compound = COc1ccc(C=O)cc1OS(=O)(=O)C(F)(F)C(F)(F)C(F)(F)C(F)(F)F , result: 19.9 µM (inactive)

// GI50 lookup, compound = Cc1ccc(C(=O)N/N=C(\N=N\c2ccccc2)c2ccc(N(C)C)cc2)cc1 , result: 24 µM (inactive)

// GI50 lookup, compound = O=S(=O)(O)c1ccc(/N=N/c2ccc(/N=N/c3c(O)ccc4cc(S(=O)(=O)O)ccc34)cc2)cc1 , result: > 100 µM (inactive)

---

Tested on: NCI-H23
Assay: NCI tumour cell line growth inhibition, 48 h
The source made the active and inactive calls. Rule as the data show it: active = GI50 up to about 1.1 µM and inactive = higher.
// allowed return values: yes (1) for active, no (0) for inactive

Examples with answers:
| compound | class assignment |
| --- | --- |
| C[N+]1(CCC[N+]2(C)CC3C4C=CC(CC4)C3C2)CCOCC1 (centres undefined) | no (0) |
| CSC1=C(C#N)C(=O)N(c2ccc(C)cc2)C(=O)C1C#N (centres undefined) | no (0) |
| CCCCCCC(=O)CC(=O)C(=O)Nc1ccccc1C | no (0) |
| O/N=C1/C(=C/c2ccc(Cl)cc2)CCCC1C(NO)c1ccc(Cl)cc1 (centres undefined) | no (0) |
| O=C1C2C=CC(C2)C(c2ccc(O)cc2)N1O (centres undefined) | no (0) |

Exercise: How did this test come out for Cc1ncc(CO)c(CN)c1O ?
Key: no (0)

Exercise: How did this test come out for N#CC[N+]1(Cc2ccccn2)CCCC1.O=S(=O)([O-])c1ccccc1 ?
Key: no (0)

Exercise: How did this test come out for CSC(SC)=C(C(=O)O)P(=O)(O)O ?
Key: no (0)

Exercise: How did this test come out for O=[N+]([O-])c1c(/C=N/Nc2ccccc2)oc(-c2ccc3c(c2)OCO3)c1-c1ccc2c(c1)OCO2 ?
Key: no (0)

Exercise: How did this test come out for COc1ccc(/C=C/C(=O)c2c(-c3ccccc3)nn(C)c(=O)c2N2CCOCC2)cc1 ?
Key: no (0)

---

System: NCI-H23
Test: NCI tumour cell line growth inhibition, 48 h
Activity calls are given as the source filed them. Cut-off read from the data, not from the text of the source: active = GI50 up to about 1.1 µM and inactive = higher.
attribute measured: GI50

Below, each entry is followed by its recorded GI50 result.
| compound | GI50 |
| --- | --- |
| CCCCCCCCCCCCCC(=O)O[C@H]1CC[C@H](NC(=O)[C@H](OC)[C@H](O)[C@@H](O)[C@H](O)/C=C/C(C)C)C(=O)NC1 [BENGAMIDE A] | 0.0113 µM (active) |
| O=[N+]([O-])c1ccc(-n2nnc(C3=NCCN3)c2-c2ccc(Cl)cc2)cc1 | > 100 µM (inactive) |
| COc1cc(/C=C2/C(=O)N/C(=N\C(C)=O)N2C)ccc1OC(C)=O | > 100 µM (inactive) |

For the next question, use this compound.
Param item: C=CCNC1=NC(=O)C(CC(=O)Nc2ccc([N+](=O)[O-])cc2[N+](=O)[O-])S1 (centres undefined) ; param system: NCI-H23; output GI50: > 100 µM (inactive)
